Reference source: patent US20100061928A1

- Tested on: grafted B16 F0 murine melanoma tumour
- assay.summary: Biodistribution of the ^125I-labelled molecules in the melanoma-bearing mouse (autoradiography of whole-body sections)
- conditions: 1 H after i.v. administration, ^125I-labelled compound
Counter-ions that a name gives are not always drawn.
Concentration of radioactivity, Ic (intestinal contents), Mean less than 20 % ID/g is TRUE; Concentration of radioactivity, Ic (intestinal contents), Mean greater than or equal to 20 % ID/g is FALSE.

(Q) # check: Concentration of radioactivity, Ic (intestinal contents), Mean < 20 % ID/g for "CCN(CC)CCNC(=O)c1nc2ccc(I)cc2[nH]1.Cl.Cl"
(A) FALSE

(Q) Another: "CCN(CC)CCNC(=O)c1ccc2cc(I)ccc2n1.Cl.Cl"
(A) TRUE

(Q) Another: CCN(CC)CCNC(=O)c1cc2cc(I)ccc2[nH]1 [compound 10, hydrochloride]
(A) FALSE

(Q) Same lookup for CCN(CC)CCNC(=O)c1ccc(I)nc1 [compound 7, dihydrochloride] , please.
(A) TRUE

(Q) Now the compound CCN(CC)CCNC(=O)c1ccc2cc(I)ccc2c1 [compound 3, hydrochloride]
(A) TRUE

(Q) // next record CCN(CC)CCNC(=O)c1nc2ccccn2c1I [compound 16, dihydrochloride]
(A) FALSE
